Catalogue of % Inhibition at 1 nM Ig of interferon gamma release in human blood values
Biological target: T1, TL1A in human blood (endogenous) (human, UniProt O95150 72-251, limits assumed)
T1 sequence (looked up): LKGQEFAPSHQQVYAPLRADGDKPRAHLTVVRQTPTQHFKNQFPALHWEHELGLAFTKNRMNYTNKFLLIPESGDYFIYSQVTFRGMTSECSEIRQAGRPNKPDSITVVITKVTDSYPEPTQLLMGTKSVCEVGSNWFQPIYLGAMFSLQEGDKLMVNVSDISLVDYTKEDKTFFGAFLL
Test: cell-based or functional assay
VALUE TYPE: % Inhibition at 1 nM Ig of interferon gamma release in human blood (%)

| BINDER | MEASUREMENT |
| --- | --- |
| A220 (antibody, human IgG1, V domains shown) VH: QVQLVQSGAEVKKPGASVKVSCKASGFDIQDTYMHWVKQRPGQGLEWMGRIDPASGHTKYDPKFQVRVTMTRDTSTSTAYLELSSLRSEDTAVYYCARSGGLPDVWGQGTTVTVSS VL: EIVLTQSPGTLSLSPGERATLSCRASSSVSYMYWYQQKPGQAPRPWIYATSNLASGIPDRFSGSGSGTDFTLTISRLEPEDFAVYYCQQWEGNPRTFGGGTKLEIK | 36.9 |
| A217 (antibody, human IgG1, V domains shown) VH: QVQLVQSGAEVKKPGASVKVSCKASGFDIQDTYMHWVKQRPGQGLEWMGRIDPASGHTKYDPKFQVRVTITRDTSTSTVYMELSSLRSEDTAVYYCARSGGLPDVWGQGTTVTVSS VL: EIVLTQSPGTLSLSPGERATLSCRASSSVSYMYWYQQKPGQAPRPLIYATSNLASGIPDRFSGSGSGTDFTLTISRLEPEDFAVYYCQQWEGNPRTFGGGTKLEIK | 46 |
| A213 (antibody, human IgG1, V domains shown) VH: QVQLVQSGAEVKKPGASVKVSCKASGFDIQDTYMHWVRQRPGQGLEWMGRIDPASGHTKYDPKFQVRVTITTDTSTSTVYMELSSLRSEDTAVYYCARSGGLPDVWGQGTTVTVSS VL: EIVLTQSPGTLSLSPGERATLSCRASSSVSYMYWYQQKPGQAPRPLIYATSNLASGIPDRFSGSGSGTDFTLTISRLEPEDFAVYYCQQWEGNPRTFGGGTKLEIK | 48.6 |
